B1: Caulobacter ParB omega fusion; a variant is named by its letters at X, in order, B8GW30 (parent)
chain: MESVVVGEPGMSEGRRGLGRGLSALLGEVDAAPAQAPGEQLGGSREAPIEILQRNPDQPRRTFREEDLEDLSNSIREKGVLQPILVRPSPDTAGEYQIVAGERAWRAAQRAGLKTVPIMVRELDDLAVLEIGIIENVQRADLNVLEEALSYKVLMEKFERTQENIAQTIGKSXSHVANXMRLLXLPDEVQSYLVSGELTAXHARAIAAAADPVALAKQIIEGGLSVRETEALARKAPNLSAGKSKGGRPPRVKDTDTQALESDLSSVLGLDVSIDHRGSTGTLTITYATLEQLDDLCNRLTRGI

variants of: B1; test: one-hybrid fitness for binding parS DNA (scaled: cognate 1, non-cognate 0); higher = stronger binding; conditions: with parS DNA site
Over roughly 81,000 sequences, “one-hybrid fitness for binding parS DNA” has its median near -0.17; the highest 2% begin near 0.51. This excerpt belongs to a sample that is enriched for the highest values.
measured-quantity: one-hybrid fitness for binding parS DNA

Problem: Endpoint output: one-hybrid fitness for binding parS DNA of RFDS . Value?
Solution: 0.954

Problem: GET /values?readout=one-hybrid fitness for binding parS DNA&item= HDPK
Solution: ≤ 0.2

Problem: Form field: reported one-hybrid fitness for binding parS DNA of SPGM
Solution: ≤ 0.2

Problem: Would you kindly share the measured one-hybrid fitness for binding parS DNA for RFDN ?
Solution: 0.354

Problem: Given WSTL , state its recorded one-hybrid fitness for binding parS DNA.
Solution: ≤ 0.2

Problem: Could you tell me which one-hybrid fitness for binding parS DNA is on file for GDYG ?
Solution: ≤ 0.2

Problem: Looking for the measured one-hybrid fitness for binding parS DNA of EADC , can you help?
Solution: ≤ 0.2

Problem: What does the record list as one-hybrid fitness for binding parS DNA for YRRM ?
Solution: ≤ 0.2

Problem: Which value of one-hybrid fitness for binding parS DNA has been reported for ALQS in the records?
Solution: ≤ 0.2

Problem: Give its one-hybrid fitness for binding parS DNA value. Item: RFND
Solution: ≤ 0.2

Problem: Which measured one-hybrid fitness for binding parS DNA value corresponds to YNMN ?
Solution: ≤ 0.2

Problem: Item TRPS has what recorded one-hybrid fitness for binding parS DNA?
Solution: ≤ 0.2

Problem: Would you kindly share the measured one-hybrid fitness for binding parS DNA for RFNH ?
Solution: ≤ 0.2

Problem: one-hybrid fitness for binding parS DNA for RIVA ?
Solution: 0.585

Problem: // lookup one-hybrid fitness for binding parS DNA for RFDP
Solution: ≤ 0.2

Problem: Param item = RFNS ; retrieve measured one-hybrid fitness for binding parS DNA.
Solution: 0.984

Problem: Fill blank: measured one-hybrid fitness for binding parS DNA of the variant THLI is ____.
Solution: ≤ 0.2

Problem: Quick one: one-hybrid fitness for binding parS DNA for PDQD ?
Solution: ≤ 0.2

Problem: # query: one-hybrid fitness for binding parS DNA of entry GPRN
Solution: ≤ 0.2

Problem: Record request: one-hybrid fitness for binding parS DNA value, item NIVA
Solution: ≤ 0.2

Problem: Given the variant RIKA , what is its reported one-hybrid fitness for binding parS DNA?
Solution: 0.745

Problem: Look up one-hybrid fitness for binding parS DNA for this variant: QQSF
Solution: ≤ 0.2
